TESTED_SYSTEM: T1, human tissue factor pathway inhibitor (TFPI) (human, UniProt P10646 29-304, limits assumed)
T1 construct: bought; also called hTFPI; human TFPI
T1 sequence (looked up): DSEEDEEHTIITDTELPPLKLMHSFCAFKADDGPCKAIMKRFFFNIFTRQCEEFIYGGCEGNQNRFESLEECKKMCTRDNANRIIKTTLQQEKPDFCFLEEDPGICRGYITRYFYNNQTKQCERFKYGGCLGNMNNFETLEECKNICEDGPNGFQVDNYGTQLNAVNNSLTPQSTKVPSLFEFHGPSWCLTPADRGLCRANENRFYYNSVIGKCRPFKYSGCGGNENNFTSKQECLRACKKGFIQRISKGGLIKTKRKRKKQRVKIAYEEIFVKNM
ASSAY_REMARKS: competitive ELISA
READOUT: variant/wild-type
Hi, when you answer, please include the unit after the number. Thanks!

BINDER	READOUT	MEASURED_VALUE
2A8 LC_V96M (Fab, V domains shown) VH: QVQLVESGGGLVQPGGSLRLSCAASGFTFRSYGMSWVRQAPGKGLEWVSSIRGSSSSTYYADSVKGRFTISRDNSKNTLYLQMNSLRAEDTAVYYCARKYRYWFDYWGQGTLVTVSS VL: DIELTQPPSVSVAPGQTARISCSGDNLRNYYAHWYQQKPGQAPVVVIYYDNNRPSGIPERFSGSNSGNTATLTISGTQAEDEADYYCQSWDDGVPMFGGGTKLTVLG	variant/wild-type	3.5 ratio

Okay, next one:
## Task Supply measured variant/wild-type of 2A8 LC_A32N (Fab, V domains shown, also called 2A8-11) VH: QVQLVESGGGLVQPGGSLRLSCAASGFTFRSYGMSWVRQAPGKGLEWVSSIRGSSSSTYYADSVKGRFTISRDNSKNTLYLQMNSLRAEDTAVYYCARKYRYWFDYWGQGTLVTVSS VL: DIELTQPPSVSVAPGQTARISCSGDNLRNYYNHWYQQKPGQAPVVVIYYDNNRPSGIPERFSGSNSGNTATLTISGTQAEDEADYYCQSWDDGVPVFGGGTKLTVLG in your reply.
## Result 3.5 ratio
